# System Under Test: PI3K beta (Homo sapiens, UniProt P42338)
# Construct: for the full-length p110-b subunit are generated and fused by overlapping PCR; p85(iSH2) fusion partner (see partner chain) (N); His tag (C); Tn5 (Trichoplusia ni) or TiniPro insect cells
# Sequence (P42338 with tags, fused parts or gaps limits assumed): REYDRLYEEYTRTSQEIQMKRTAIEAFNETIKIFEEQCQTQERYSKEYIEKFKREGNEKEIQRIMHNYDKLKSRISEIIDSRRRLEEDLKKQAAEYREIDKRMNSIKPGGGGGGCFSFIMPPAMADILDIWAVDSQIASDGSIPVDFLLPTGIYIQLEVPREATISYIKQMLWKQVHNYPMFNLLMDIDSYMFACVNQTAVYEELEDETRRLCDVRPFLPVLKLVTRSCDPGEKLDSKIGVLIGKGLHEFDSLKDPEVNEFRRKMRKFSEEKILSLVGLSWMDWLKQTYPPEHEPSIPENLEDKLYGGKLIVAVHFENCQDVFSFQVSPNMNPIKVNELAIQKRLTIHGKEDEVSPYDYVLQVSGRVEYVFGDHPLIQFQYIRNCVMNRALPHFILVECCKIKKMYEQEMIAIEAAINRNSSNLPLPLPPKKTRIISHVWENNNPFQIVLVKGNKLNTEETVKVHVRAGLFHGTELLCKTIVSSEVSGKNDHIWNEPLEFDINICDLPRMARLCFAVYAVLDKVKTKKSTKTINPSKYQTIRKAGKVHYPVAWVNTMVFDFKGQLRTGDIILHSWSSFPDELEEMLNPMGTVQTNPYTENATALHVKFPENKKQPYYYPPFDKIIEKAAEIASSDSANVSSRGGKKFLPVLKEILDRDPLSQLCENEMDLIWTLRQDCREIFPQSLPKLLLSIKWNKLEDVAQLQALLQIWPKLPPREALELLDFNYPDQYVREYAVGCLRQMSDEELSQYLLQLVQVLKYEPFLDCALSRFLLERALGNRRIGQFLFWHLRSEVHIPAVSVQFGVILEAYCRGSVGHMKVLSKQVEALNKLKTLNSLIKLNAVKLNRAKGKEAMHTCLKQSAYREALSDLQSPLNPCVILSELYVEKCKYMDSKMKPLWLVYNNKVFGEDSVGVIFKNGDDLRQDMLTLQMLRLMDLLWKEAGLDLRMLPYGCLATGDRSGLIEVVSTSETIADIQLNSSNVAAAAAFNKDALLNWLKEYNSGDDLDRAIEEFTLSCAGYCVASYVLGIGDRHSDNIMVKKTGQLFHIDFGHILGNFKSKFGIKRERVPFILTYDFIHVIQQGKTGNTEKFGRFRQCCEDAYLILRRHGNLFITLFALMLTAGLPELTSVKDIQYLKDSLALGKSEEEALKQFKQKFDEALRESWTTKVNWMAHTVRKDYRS
# Assay Text: PI3K beta kinase assay (Kinase-Glo luminescence)
# Description: In a more preferred assay, the kinase reaction is performed in a final volume of 10 μL per well of a low volume non binding CORNING, 384 well black plate (Cat. No. #3676). The final concentrations of ATP and phosphatidyl inositol (PI) in the assay are 1 μM and 10 μg/mL respectively. […] IC50 is determined by a four parameter curve fitting routine that comes along with “excel fit”. […] Alternatively, IC50 values are calculated using idbsXLfit model 204, which is a 4 parameter logistic model.
Assay Endpoint: IC50 (µM)

Chemical Structure | Unit Text | Recorded Measurement
Cc1nn(C)cc1-n1c(=O)n(C)c2cnc3ccc(-c4cnc(N)c(F)c4)cc3c21 | µM | 0.287
CCNc1cc(-c2ccc3ncc4c(c3c2)n(-c2cn(C)nc2Cl)c(=O)n4C)cnc1OC | µM | 0.039
CCn1nccc1-n1c(=O)n(C)c2cnc3ccc(-c4ccc(OC)c(OC)c4)cc3c21 | µM | 0.28

[P] Cc1ncc(-c2ccc3ncc4c(c3c2)n(-c2cn(C)nc2C)c(=O)n4C)cc1N(C)C
[Q] CCOc1cc(-c2ccc3ncc4c(c3c2)n(-c2cn(C)nc2C)c(=O)n4C)cnc1CC
[R] CCn1cc(-n2c(=O)n(C)c3cnc4ccc(-c5cnc(N)c(Cl)c5)cc4c32)c(C)n1
Could you please order the items by IC50, going from the lowest number to the highest? As an answer, provide the labels arranged in the order called for.
R, P, Q
(R: 0.003 µM, P: 0.011 µM, Q: 0.028 µM)

[I] Cc1nn(C)c(C)c1-n1c(=O)n(C)c2cnc3ccc(-c4ccc(CO)nc4)cc3c21
[II] COc1ccc(-c2ccc3ncc4c(c3c2)n(-c2cn(C)nc2C)c(=O)n4C)cc1OC
Choose between I and II : whose measured IC50 value is numerically larger? Your answer should be the label of the entry you select.
I

[P] COc1ncc(-c2ccc3ncc4c(c3c2)n(-c2cn(C)nc2C)c(=O)n4C)cc1C(N)=O
[Q] CCn1cc(-n2c(=O)n(C)c3cnc4ccc(-c5cncc(C6(C#N)CCC6)c5)cc4c32)c(C)n1
[R] CNc1ncc(-c2ccc3ncc4c(c3c2)n(-c2cn(C(C)C)nc2C)c(=O)n4C)cc1F
[S] CN(C)c1ccc(-c2ccc3ncc4c(c3c2)n(-c2cn(C)nc2Cl)c(=O)n4C)cn1
Order the items by recorded IC50; the first position goes to the largest value. As an answer, provide the labels arranged in the order called for.
R, P, S, Q
(R: 0.407 µM, P: 0.093 µM, S: 0.059 µM, Q: 0.029 µM)

[A] CCOCc1cc(-c2ccc3ncc4c(c3c2)n(-c2cn(C)nc2C)c(=O)n4C)cnc1N
[B] CCNc1cc(-c2ccc3ncc4c(c3c2)n(-c2c(C)nn(CCOC)c2C)c(=O)n4C)cnc1C
[C] Cc1nn(C)cc1-n1c(=O)n(C)c2cnc3ccc(-c4cnc5c(c4)ncn5C)cc3c21
Order the items by recorded IC50; the first position goes to the largest value. As an answer, provide the labels arranged in the order called for.
C, B, A

* * *

# Assay Text: Solubility at pH 6.8
# Assay type: physicochemical
# Condition Notes: pH 6.8, aqueous buffer, thermodynamic from solid; read-out: solubility
Assay Endpoint: solubility (mg/mL)

In the examples that follow, each entry is paired with its recorded solubility.
Compound | solubility (mg/mL)
CO[C@@H]1CCN(c2ccc(-c3ccc4ncc5c(c4c3)n(-c3cn(C)nc3C)c(=O)n5C)cn2)C1 [Example 213.1] | 0.217
COCCN(C)C(=O)Cn1cc(-n2c(=O)n(C)c3cnc4ccc(-c5ccccc5)cc4c32)c(C)n1 [Example 137] | 0.427
COc1ccc(-c2ccc3ncc4[nH]c(=O)n(-c5cn(C)nc5C)c4c3n2)cc1OC [Example 249] | 0.016
CCOc1ccc(-c2ccc3ncc4c(c3c2)n(-c2cn(CC(=O)N3CCC3)nc2C)c(=O)n4C)cn1 [Example 138] | 0.026
CCn1cc(-n2c(=O)n(C)c3cnc4ccc(-c5cncc(NC)c5)cc4c32)c(C)n1 [Example 180.1] | 0.011

[I] COc1ccc(-c2ccc3ncc4c(c3c2)n(-c2cn(CCO)nc2C)c(=O)n4C)cn1 [Example 103.1]
[II] Cc1nn(C)cc1-n1c(=O)n(C)c2cnc3ccc(-c4cccc(S(=O)(=O)N5CCCC5)c4)cc3c21 [Example 44]
Between item I and item II , which reported solubility is smaller? Your answer should be the label of the entry you select.
II
(II: 0.008 mg/mL, I: 0.038 mg/mL)

[1] Cc1nn(C(C)C)cc1-n1c(=O)n(C)c2cnc3ccc(-c4ccccn4)cc3c21 [Example 113]
[2] Cn1cc(-n2c(=O)n(C)c3cnc4ccc(-c5ccc(CO)nc5)cc4c32)c(Cl)n1 [Example 16.5]
Between item 1 and item 2 , which reported solubility is smaller? Your answer should be the label of the entry you select.
2

* * *

# System Under Test: PI3K delta (Homo sapiens, UniProt O00329)
# Construct: for the full-length p110-d subunit are generated and fused by overlapping PCR; p85(iSH2) fusion partner (see partner chain) (N); His tag (C); Tn5 (Trichoplusia ni) or TiniPro insect cells
# Sequence (O00329 with tags, fused parts or gaps limits assumed): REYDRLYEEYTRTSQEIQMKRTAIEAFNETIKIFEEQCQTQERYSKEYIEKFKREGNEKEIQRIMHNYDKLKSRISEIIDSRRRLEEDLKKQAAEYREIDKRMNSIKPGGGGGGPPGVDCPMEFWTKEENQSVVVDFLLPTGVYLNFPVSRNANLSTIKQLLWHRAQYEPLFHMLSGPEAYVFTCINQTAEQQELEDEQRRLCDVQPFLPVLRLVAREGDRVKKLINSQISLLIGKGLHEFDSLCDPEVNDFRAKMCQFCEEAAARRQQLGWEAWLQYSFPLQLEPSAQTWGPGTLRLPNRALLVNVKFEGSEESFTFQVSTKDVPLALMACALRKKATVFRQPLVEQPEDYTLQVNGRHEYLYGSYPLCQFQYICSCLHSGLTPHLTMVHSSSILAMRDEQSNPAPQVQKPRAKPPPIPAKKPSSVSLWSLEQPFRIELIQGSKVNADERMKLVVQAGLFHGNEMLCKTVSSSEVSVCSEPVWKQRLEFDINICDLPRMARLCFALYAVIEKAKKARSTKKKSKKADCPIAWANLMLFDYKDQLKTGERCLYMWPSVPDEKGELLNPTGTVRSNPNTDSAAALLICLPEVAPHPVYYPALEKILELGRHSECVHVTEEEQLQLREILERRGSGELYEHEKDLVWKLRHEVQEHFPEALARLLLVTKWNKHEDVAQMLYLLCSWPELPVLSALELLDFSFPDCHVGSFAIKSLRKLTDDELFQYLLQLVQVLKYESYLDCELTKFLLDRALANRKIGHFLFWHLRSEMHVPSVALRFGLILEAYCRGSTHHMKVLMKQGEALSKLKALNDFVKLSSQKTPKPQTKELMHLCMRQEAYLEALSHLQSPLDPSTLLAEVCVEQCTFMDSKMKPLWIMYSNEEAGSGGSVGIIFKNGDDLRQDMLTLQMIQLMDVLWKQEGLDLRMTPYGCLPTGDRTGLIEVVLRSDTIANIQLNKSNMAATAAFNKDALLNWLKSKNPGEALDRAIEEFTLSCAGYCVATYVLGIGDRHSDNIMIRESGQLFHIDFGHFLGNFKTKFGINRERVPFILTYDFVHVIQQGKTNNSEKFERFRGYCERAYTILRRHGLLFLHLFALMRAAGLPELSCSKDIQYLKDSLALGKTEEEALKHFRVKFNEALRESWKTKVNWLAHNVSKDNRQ
# Assay Text: PI3K delta kinase assay (Kinase-Glo luminescence)
Assay Endpoint: IC50 (nM)

In the examples that follow, each entry is paired with its recorded IC50.
Compound | IC50 (nM)
Cc1nn(C(C)C)cc1-n1c(=O)n(C)c2cnc3ccc(-c4cnc(N(C)C)nc4)cc3c21 [Example 6.1] | 28
COCCn1nc(C)c(-n2c(=O)n(C)c3cnc4ccc(-c5ccc(-n6cccn6)cc5)cc4c32)c1C [Example 51.5] | 362
Cc1nn(CC(=O)N(C)C)c(C)c1-n1c(=O)n(C)c2cnc3ccc(-c4cncc(OC5CCC5)c4)cc3c21 [Example 60.2] | 694

[1] CCn1cc(-n2c(=O)n(C)c3cnc4ccc(-c5cncc(C(C)(C)O)c5)cc4c32)c(C)n1 [Example 215.4]
[2] COCCOc1cc(-c2ccc3ncc4c(c3c2)n(-c2cn(C)nc2C)c(=O)n4C)cnc1CO [Example 244]
Choose between 1 and 2 : whose measured IC50 value is numerically larger? Your answer should be the label of the entry you select.
2
(2: 17 nM, 1: 10 nM)

[P] Cc1nn(CC(=O)N(C)C)c(C)c1-n1c(=O)n(C)c2cnc3ccc(-c4cnc(N)c(C(F)(F)F)c4)cc3c21 [Example 25.2]
[Q] Cc1nn(C)c(C)c1-n1c(=O)n(C)c2cnc3ccc(-c4cnc(N)c(F)c4)cc3c21 [Example 142.1]
Between item P and item Q , which reported IC50 is smaller? Your answer should be the label of the entry you select.
Q

* * *

# System Under Test: PI3K alpha (Homo sapiens)
# Construct: p85(iSH2) fusion partner (see partner chain) (N); His tag (C); Tn5 (Trichoplusia ni) or TiniPro insect cells
# Sequence (P42336 with tags, fused parts or gaps limits assumed): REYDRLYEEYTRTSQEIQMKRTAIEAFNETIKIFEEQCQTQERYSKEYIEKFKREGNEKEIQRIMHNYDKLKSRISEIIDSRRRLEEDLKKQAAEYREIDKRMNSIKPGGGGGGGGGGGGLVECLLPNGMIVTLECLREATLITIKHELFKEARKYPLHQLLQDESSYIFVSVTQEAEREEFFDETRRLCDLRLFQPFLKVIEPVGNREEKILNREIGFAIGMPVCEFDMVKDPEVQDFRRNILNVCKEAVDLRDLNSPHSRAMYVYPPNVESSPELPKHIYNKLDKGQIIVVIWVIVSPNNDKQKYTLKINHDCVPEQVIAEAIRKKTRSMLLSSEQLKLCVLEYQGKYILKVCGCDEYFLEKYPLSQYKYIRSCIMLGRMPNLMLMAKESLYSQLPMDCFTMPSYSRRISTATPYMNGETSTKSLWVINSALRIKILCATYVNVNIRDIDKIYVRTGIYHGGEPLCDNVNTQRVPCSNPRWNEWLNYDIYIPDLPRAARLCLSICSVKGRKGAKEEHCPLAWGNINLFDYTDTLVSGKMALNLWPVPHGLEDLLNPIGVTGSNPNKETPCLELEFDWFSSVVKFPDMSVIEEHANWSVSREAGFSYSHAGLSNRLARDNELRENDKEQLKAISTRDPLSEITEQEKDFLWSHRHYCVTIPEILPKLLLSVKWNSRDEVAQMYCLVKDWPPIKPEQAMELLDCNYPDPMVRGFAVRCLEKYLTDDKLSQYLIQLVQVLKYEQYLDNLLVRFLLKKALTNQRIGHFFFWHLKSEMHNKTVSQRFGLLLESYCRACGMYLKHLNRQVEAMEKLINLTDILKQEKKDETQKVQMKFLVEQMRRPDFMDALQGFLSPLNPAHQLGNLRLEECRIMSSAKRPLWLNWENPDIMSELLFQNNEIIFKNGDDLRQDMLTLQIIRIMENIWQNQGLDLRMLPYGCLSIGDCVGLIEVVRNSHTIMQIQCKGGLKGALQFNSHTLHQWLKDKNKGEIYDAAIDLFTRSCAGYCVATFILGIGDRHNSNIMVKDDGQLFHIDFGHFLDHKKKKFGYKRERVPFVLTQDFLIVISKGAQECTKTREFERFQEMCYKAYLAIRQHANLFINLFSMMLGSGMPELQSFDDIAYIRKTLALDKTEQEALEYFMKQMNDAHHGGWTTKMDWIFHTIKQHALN
# Assay Text: PI3K alpha kinase assay (Kinase-Glo luminescence)
pIC50: −log10 of the molar value.
Assay Endpoint: pIC50

In the examples that follow, each entry is paired with its recorded pIC50.
Chemical Structure | Recorded Measurement
CCNc1cc(-c2ccc3ncc4c(c3c2)n(-c2cn(C)nc2C)c(=O)n4C)cnc1COC | 7.80
COc1ncc(-c2ccc3ncc4c(c3c2)n(-c2cn(C)nc2C)c(=O)n4C)cc1NC(C)=O | 7.06
C=CCn1c(=O)n(-c2cn(C)nc2C)c2c3cc(-c4cncc(N)c4)ccc3ncc21 | 7.55

[1] CCOc1ccc(-c2ccc3ncc4c(c3c2)n(-c2cnn(C)c2C)c(=O)n4C)cn1
[2] CCOc1cncc(-c2ccc3ncc4c(c3c2)n(-c2cn(C)nc2C)c(=O)n4C)c1
Choose between 1 and 2 : whose measured pIC50 value is numerically larger? Your answer should be the label of the entry you select.
2

* * *

# System Under Test: PI3K delta (Homo sapiens)
# Construct: for the full-length p110-d subunit are generated and fused by overlapping PCR; p85(iSH2) fusion partner (see partner chain) (N); His tag (C); Tn5 (Trichoplusia ni) or TiniPro insect cells
# Assay Text: PI3K delta kinase assay (Kinase-Glo luminescence)
Assay Endpoint: IC50 (nM)

In the examples that follow, each entry is paired with its recorded IC50.
Compound | Recorded Measurement
CCNC(=O)c1cc(-c2ccc3ncc4c(c3c2)n(-c2cn(C(C)C)nc2C)c(=O)n4C)cnc1N [Example 227] | 26
Cc1nn(C)cc1-n1c(=O)n(C)c2cnc3ccc(-c4cncc(C5(C#N)CCC5)c4)cc3c21 [Example 221.1] | 6
COc1cc(-c2ccc3ncc4c(c3c2)n(-c2cn(C)nc2C)c(=O)n4C)cnc1C [Example 184] | 4
Cc1nn(C)c(C)c1-n1c(=O)n(C)c2cnc3ccc(-c4cnc(N)nc4)cc3c21 [Example 81.2] | 30
Cc1nn(C)cc1-n1c(=O)n(C)c2cnc3ccc(-c4ccc(-c5ncc[nH]5)cc4)cc3c21 [Example 77] | 8

[I] COCCOc1ccc(-c2ccc3ncc4c(c3c2)n(-c2cn(C)nc2C)c(=O)n4C)cc1OC [Example 30.1]
[II] Cc1nn(C(C)C)cc1-n1c(=O)n(C)c2cnc3ccc(-c4cnc(F)c(N)c4)cc3c21 [Example 149.1]
Choose between I and II : whose measured IC50 value is numerically larger? Your answer should be the label of the entry you select.
I
